procedure summary: API-CapAcid salts prepared in ethanol, then 70 mg of solid added to 1 mL water (visual)
Format: physicochemical
experimental context: API FB 100 mg + CapAcid 1 molar equivalent (H^+) in 10 mL 200 proof ethanol
parameter measured: pH of the ethanol solution prior to titration
Answer using only a numeral; do not append any unit.

Exercise: Give its pH of the ethanol solution prior to titration value. Item: COc1ccccc1OCCNCC(O)COc1cccc2[nH]c3ccccc3c12 (stereo not shown) [Carvedilol]
Solution: 0.82

Exercise: Follow-up entry: CCCN(CCc1cccs1)[C@H]1CCc2c(O)cccc2C1 [rotigotine]
Solution: 5.63

Exercise: Request: COc1c(OCCCN2CCOCC2)ccc2c1N=C(NC(=O)c1cnc(N)nc1)N1CCN=C21 [Copanlisib]
Solution: 0.66

Exercise: Entry to check: CN1CCC[C@@H]1Cc1c[nH]c2ccc(CCS(=O)(=O)c3ccccc3)cc12 [eletriptan]
Solution: 8.02
